# tested_target: activated human C1s (Homo sapiens)
# Sequence (P09871 438-688 limits assumed): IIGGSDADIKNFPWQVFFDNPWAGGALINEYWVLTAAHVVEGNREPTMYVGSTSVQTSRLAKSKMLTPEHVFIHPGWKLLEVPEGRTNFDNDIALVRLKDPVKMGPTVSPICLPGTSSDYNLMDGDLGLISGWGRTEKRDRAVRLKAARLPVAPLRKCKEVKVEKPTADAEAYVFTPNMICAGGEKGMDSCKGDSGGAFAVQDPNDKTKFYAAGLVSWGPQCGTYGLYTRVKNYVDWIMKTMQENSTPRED
# Sequence (P09871 16-437 limits assumed): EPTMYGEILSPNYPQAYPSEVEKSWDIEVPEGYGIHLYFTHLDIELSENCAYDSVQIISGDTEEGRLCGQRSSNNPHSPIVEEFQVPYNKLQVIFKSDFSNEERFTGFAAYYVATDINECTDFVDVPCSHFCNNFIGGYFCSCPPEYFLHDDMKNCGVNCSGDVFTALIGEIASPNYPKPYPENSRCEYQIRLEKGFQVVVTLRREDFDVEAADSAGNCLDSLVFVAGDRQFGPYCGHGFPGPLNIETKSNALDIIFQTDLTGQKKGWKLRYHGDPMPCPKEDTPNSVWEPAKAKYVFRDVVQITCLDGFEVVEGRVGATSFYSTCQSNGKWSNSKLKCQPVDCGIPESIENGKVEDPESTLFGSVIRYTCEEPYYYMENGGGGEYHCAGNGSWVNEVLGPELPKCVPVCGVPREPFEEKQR
# protocol_description: In vitro inhibition of C1s (Ki determination, Z-Gly-Arg-S-Bzl hydrolysis, DTNB readout)
# condition_info: substrate Z-Gly-Arg-S-Bzl 45 μM, 37° C., pH 7.5
experimental_readout: pKi
One number for each entry, as −log10 of the molar value.

> print(dat)
                                   compound  experimental.readout  observed.result
1  CSc1sc(C(=N)N)cc1S(=O)(=NS(=O)(=O)c1cccc([N+](=O)[O-])c1)c1cccc(-c2ccc(NC(=N)N)cc2C)c1 (centres unmarked) [Example 46]                   pKi             8.00

pKi recorded for this compound, CSc1sc(C(=N)N)cc1S(=O)(=NS(=O)(=O)c1cccc(NC(N)=O)c1)c1cccc(-c2c(C)cc(NC(=N)N)cc2N)c1 (centres unmarked) [Example 18] , is 7.96
